system name: EcaGST A3-3 (Equus caballus, UniProt M9ZT87)
Sequence (M9ZT87 entry or part of it): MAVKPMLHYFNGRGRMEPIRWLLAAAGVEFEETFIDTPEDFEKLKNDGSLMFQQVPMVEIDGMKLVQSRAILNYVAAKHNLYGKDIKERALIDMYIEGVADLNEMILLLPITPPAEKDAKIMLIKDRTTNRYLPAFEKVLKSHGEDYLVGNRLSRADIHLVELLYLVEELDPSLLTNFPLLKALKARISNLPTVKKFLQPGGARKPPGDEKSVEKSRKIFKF
assay procedure: Inhibition of EcaGST A3-3 steroid double-bond isomerase activity with Δ^5-AD
Type: biochemical, Equus ferus caballus
Catalogue of compounds with associated IC50
assay metric: IC50 (nM)

• Oc1c(Cl)cc(Cl)cc1Sc1cc(Cl)cc(Cl)c1O [Bithionate sodium] = 1600
• C=C(CC)C(=O)c1ccc(OCC(=O)O)c(Cl)c1Cl [Ethacrynic acid] = 250
• Oc1c(Cl)cc(Cl)c(Cl)c1Cc1c(O)c(Cl)cc(Cl)c1Cl [Hexachlorophene] = 440
• O=C(O)c1cc(O)c2c(c1)[C@H]([C@H]1c3cc(C(=O)O)cc(O)c3C(=O)c3c(O[C@@H]4O[C@H](CO)[C@@H](O)[C@H](O)[C@H]4O)cccc31)c1cccc(O[C@@H]3O[C@H](CO)[C@@H](O)[C@H](O)[C@H]3O)c1C2=O [Sennoside A] = 110
• O=C1c2c(O)cccc2Cc2cccc(O)c21 [Anthralin] = 85

---

system name: HsaGST M2-2 (Homo sapiens)
Construct: made in house
Sequence (P28161 whole entry): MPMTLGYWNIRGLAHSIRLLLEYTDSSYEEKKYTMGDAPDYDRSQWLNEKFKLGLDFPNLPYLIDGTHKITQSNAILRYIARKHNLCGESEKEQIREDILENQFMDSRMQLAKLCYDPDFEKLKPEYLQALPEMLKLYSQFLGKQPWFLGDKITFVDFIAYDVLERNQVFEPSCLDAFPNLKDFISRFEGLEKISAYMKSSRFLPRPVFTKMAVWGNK
assay procedure: Inhibition of HsaGST M2-2 CDNB activity
Format: biochemical
condition description: 10 μM inhibitor, 1 mM GSH, 1 mM CDNB, pH 6.5, 30°C; read-out: Inhibition (%) of HsaGST M2-2
assay metric: inhibition at 10 µM (%)

• O=C1c2c(O)cccc2Cc2cccc(O)c21 = 80
• COC(=O)C1=C(C)NC(C)=C(C(=O)OCC(C)C)C1c1ccccc1[N+](=O)[O-] (stereo not shown) = 35
• C=C(CC)C(=O)c1ccc(OCC(=O)O)c(Cl)c1Cl = 0
• Oc1c(Cl)cc(Cl)cc1Sc1cc(Cl)cc(Cl)c1O [Bithionate sodium] = 73

---

system name: HsaGST A3-3 (Homo sapiens, UniProt Q16772)
Construct: made in house
Sequence (Q16772 whole entry): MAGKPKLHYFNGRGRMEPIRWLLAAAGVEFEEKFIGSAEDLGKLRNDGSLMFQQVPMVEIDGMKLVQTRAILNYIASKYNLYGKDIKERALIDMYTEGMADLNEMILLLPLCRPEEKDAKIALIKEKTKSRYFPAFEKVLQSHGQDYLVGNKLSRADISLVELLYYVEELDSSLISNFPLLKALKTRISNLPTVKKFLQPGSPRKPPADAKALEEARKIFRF
assay procedure: Inhibition of HsaGST A3-3 CDNB activity
Type: biochemical
condition description: pH 6.5, 10 μM inhibitor, 1 mM GSH, 1 mM CDNB, pH 6.5, 30°C; read-out: Inhibition (%) of HsaGST A3-3
Catalogue of compounds with associated inhibition at 10 µM
assay metric: inhibition at 10 µM (%)

* O=C1c2c(O)cccc2Cc2cccc(O)c21 | 88
* Oc1c(Cl)cc(Cl)cc1Sc1cc(Cl)cc(Cl)c1O [Bithionate sodium] | 47
* O=C(O)c1cc(O)c2c(c1)[C@H]([C@H]1c3cc(C(=O)O)cc(O)c3C(=O)c3c(O[C@@H]4O[C@H](CO)[C@@H](O)[C@H](O)[C@H]4O)cccc31)c1cccc(O[C@@H]3O[C@H](CO)[C@@H](O)[C@H](O)[C@H]3O)c1C2=O [Sennoside A] | 90
* COC(=O)C1=C(C)NC(C)=C(C(=O)OCC(C)C)C1c1ccccc1[N+](=O)[O-] (centres unmarked) | 70

---

Catalogue of compounds with associated inhibition at 10 µM
system name: EcaGST A3-3 (Equus caballus, UniProt M9ZT87)
assay procedure: Inhibition of EcaGST A3-3 activity, GSH conjugation with CDNB
Assay type: biochemical, Equus ferus caballus
condition description: 10 μM inhibitor, 1 mM GSH, 1 mM CDNB, sodium phosphate pH 6.5, 30°C; read-out: Inhibition (%) of EcaGST A3-3
assay metric: inhibition at 10 µM (%)

- CCCCCCCCCCCCCCCC(=O)OC[C@@H](NC(=O)C(Cl)Cl)[C@H](O)c1ccc([N+](=O)[O-])cc1 [Chloramphenicol palmitate]: 40
- CC(C)NCC(O)c1cc(O)cc(O)c1 (stereo not shown): 42
- O=C1c2c(O)cccc2Cc2cccc(O)c21: 96
- O=C(O)c1cc(O)c2c(c1)[C@H]([C@H]1c3cc(C(=O)O)cc(O)c3C(=O)c3c(O[C@@H]4O[C@H](CO)[C@@H](O)[C@H](O)[C@H]4O)cccc31)c1cccc(O[C@@H]3O[C@H](CO)[C@@H](O)[C@H](O)[C@H]3O)c1C2=O [Sennoside A]: 100
- CC(C)n1c(/C=C/C(O)CC(O)CC(=O)O)c(-c2ccc(F)cc2)c2ccccc21 (stereo not shown) [Fluvastatin sodium]: 31

---

system name: HsaGST A3-3 (Homo sapiens)
Construct: made in house
assay procedure: Inhibition of HsaGST A3-3 CDNB activity
Format: biochemical
condition description: CDNB activity, 1 mM GSH, 1 mM CDNB, pH 6.5, 30°C
pIC50: −log10 of the molar value.
assay metric: pIC50

* OC[C@H]1O[C@H]([S-])[C@H](O)[C@@H](O)[C@@H]1O.[Au+] | 6.04
* O=C(O)c1cc(O)c2c(c1)[C@H]([C@H]1c3cc(C(=O)O)cc(O)c3C(=O)c3c(O[C@@H]4O[C@H](CO)[C@@H](O)[C@H](O)[C@H]4O)cccc31)c1cccc(O[C@@H]3O[C@H](CO)[C@@H](O)[C@H](O)[C@H]3O)c1C2=O [Sennoside A] | 6.01
* O=C1c2c(O)cccc2Cc2cccc(O)c21 | 6.14
